Can you tell me viability, T/C for the items I'm about to list?
# Test system: 276233-004-R-J1-PDC KRAS spheroids with HUVEC/MSC, viability;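 further: cells exposed to agents for seven days before viability read; 100% = DMSO vehicle control wells and lower values mean fewer viable cells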
# assayName: Anticancer human tumor 276233-004-R-J1-PDC patient-derived colon adenocarcinoma cell line growth inhibition [KRAS2]
# conditionInfo: second compound 10 µM; first compound 0.316 µM; stronger effect = lower value

Give me measured viability, T/C, please, for this compound: COc1cc2nccc(Oc3ccc(NC(=O)C4(C(=O)Nc5ccc(F)cc5)CC4)cc3)c2cc1OC + CNCc1ccccc1-c1csc(C(C)Nc2nc(C)nc3cc(OC)c(OC)cc23)c1 0.57%

Please list viability, T/C recorded for the compound CC1COCCN1c1cc(-c2ccnn2C)c2ccnc(-c3ccn[nH]3)c2n1 (stereo not given) + C=CC(=O)N1CCN(c2nc(=O)n(-c3c(C)ccnc3C(C)C)c3nc(-c4c(O)cccc4F)c(F)cc23)C(C)C1 43.8%

Name the recorded viability, T/C of the compound listed here: CC(C)NCC(C(=O)N1CCN(c2ncnc3c2C(C)CC3O)CC1)c1ccc(Cl)cc1 (stereo not given) + CC1OCC2(CCN(c3cnc(Sc4ccnc(N)c4Cl)c(N)n3)CC2)C1N 38.1%

Consider the compound CC1OCC2(CCN(c3cnc(Sc4ccnc(N)c4Cl)c(N)n3)CC2)C1N (stereo not given) + C=CC(=O)N1CCN(c2nc(=O)n(-c3c(C)ccnc3C(C)C)c3nc(-c4c(O)cccc4F)c(F)cc23)C(C)C1 . State its measured viability, T/C. 63.9%

Please give measured viability, T/C of the following entry: CC(=O)OC12COC1CC(O)C1(C)C(=O)C(O)C3=C(C)C(OC(=O)C(O)C(NC(=O)OC(C)(C)C)c4ccccc4)CC(O)(C(OC(=O)c4ccccc4)C21)C3(C)C (stereo not given) + COc1cc2nc(C)nc(NC(C)c3cc(N)cc(C(F)(F)F)c3)c2cc1OC1CCOC1 72.7%
